# tested-system: M1 muscarinic receptor (Homo sapiens, UniProt P11229)
# Construct: expressed in transfected cells; host or cells: CHO cells (M1-CHO, under zeocin and G418 selection)
# Sequence (P11229 whole entry): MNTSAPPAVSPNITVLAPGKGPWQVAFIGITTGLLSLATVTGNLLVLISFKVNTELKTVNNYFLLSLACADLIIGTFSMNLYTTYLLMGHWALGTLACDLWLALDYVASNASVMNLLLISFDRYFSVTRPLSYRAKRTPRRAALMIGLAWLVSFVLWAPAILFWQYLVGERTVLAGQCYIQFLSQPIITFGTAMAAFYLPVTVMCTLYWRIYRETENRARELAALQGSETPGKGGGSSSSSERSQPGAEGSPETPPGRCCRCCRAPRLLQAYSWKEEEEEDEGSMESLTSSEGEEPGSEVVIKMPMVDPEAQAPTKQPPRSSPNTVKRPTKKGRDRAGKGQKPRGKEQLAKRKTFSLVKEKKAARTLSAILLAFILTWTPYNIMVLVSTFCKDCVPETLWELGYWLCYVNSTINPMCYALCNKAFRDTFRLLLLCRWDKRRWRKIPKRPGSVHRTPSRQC
# procedure-summary: Functional mobilization of intracellular calcium (FLIPR, Fluo-3), M1-CHO cells
# Type: cell-based
# applied-conditions: compound nos. 1-454; 100% efficacy is the maximum response obtained with the Carbachol control; read-out: M1 Efficacy
Property: Emax; scope: individual compounds

- compound: "COC(=O)N1CC2(CCN(C3CC4CCC(C3)N4C(=O)O[C@@H]3CCOC3)CC2)c2cc(F)ccc21 (stereo partly shown) [compound 192]"
  tested-system: "M1 muscarinic receptor (Homo sapiens, UniProt P11229)"
  Emax: "65 to 85%"
- compound: "CCOC(=O)N1C2CCC1CC(N1CCC3(CC1)CN(C(=O)c1ccno1)c1ccc(F)cc13)C2 (stereo not shown) [compound 88]"
  tested-system: "M1 muscarinic receptor (Homo sapiens, UniProt P11229)"
  Emax: "65 to 85%"
- compound: "CCOC(=O)N1C2CCC1CC(N1CCC3(CC1)CN(C(=O)c1cc(C)nn1C(C)(C)C)c1ccc(F)cc13)C2 (stereo not shown) [compound 189]"
  tested-system: "M1 muscarinic receptor (Homo sapiens, UniProt P11229)"
  Emax: "65 to 85%"
- compound: "CC#CCOC(=O)N1CCC(N2CCC3(CC2)CN(C(=O)N(C)C)c2ccc(F)cc23)CC1 [compound 353]"
  tested-system: "M1 muscarinic receptor (Homo sapiens, UniProt P11229)"
  Emax: "> 85%"
- compound: "CS(=O)(=O)N1CC2(CCN(C3CC4CCC(C3)N4C(=O)OC3CCC3)CC2)c2cc(F)ccc21 (stereo not shown) [compound 122]"
  tested-system: "M1 muscarinic receptor (Homo sapiens, UniProt P11229)"
  Emax: "65 to 85%"
- compound: "CCCOC(=O)N1C2CCC1CC(N1CCC3(CC1)CN(C(=O)OC)c1ccc(F)cc13)C2 (stereo not shown) [compound 386]"
  tested-system: "M1 muscarinic receptor (Homo sapiens, UniProt P11229)"
  Emax: "< 65%"
- compound: "CCOC(=O)N1CCC(N2CCC3(CC2)CN(C(C)=O)c2ccc(-c4ccccc4)cc23)CC1 [compound 126]"
  tested-system: "M1 muscarinic receptor (Homo sapiens, UniProt P11229)"
  Emax: "< 65%"
- compound: "CCOC(=O)N1CCC(N2CCC3(CC2)CN(C(=O)N2CCCC2)c2ccc(F)cc23)CC1 [compound 22]"
  tested-system: "M1 muscarinic receptor (Homo sapiens, UniProt P11229)"
  Emax: "65 to 85%"
- compound: "CCC1CCC(N2CCC3(CC2)C[C@H](NC(C)=O)c2ccccc23)CC1 (stereo partly shown) [compound 367]"
  tested-system: "M1 muscarinic receptor (Homo sapiens, UniProt P11229)"
  Emax: "< 65%"
- compound: "CCOC(=O)N1CCC(CN2CCC3(CC2)COc2ccc(Cl)cc23)CC1 [compound 176]"
  tested-system: "M1 muscarinic receptor (Homo sapiens, UniProt P11229)"
  Emax: "> 85%"
- compound: "CCOC(=O)N1CCC(N2CCC3(CC2)CNc2ccc(Cl)cc23)CC1 [compound 19]"
  tested-system: "M1 muscarinic receptor (Homo sapiens, UniProt P11229)"
  Emax: "65 to 85%"
- compound: "CC(=O)N[C@H]1CC2(CCN(CC3CCN(C(=O)OC(C)C)CC3)CC2)c2ccccc21 [compound 399]"
  tested-system: "M1 muscarinic receptor (Homo sapiens, UniProt P11229)"
  Emax: "65 to 85%"
- compound: "CCOC(=O)N1CCC(N2CCC3(CC2)CN(C(=O)CC(C)(C)C)c2ccc(F)cc23)CC1 [compound 194]"
  tested-system: "M1 muscarinic receptor (Homo sapiens, UniProt P11229)"
  Emax: "> 85%"
- compound: "CCOC(=O)N1C2CCC1CC(N1CCC3(CC1)CN(C(=O)N(C)C)c1ccc(F)cc13)C2 (stereo not shown) [compound 362]"
  tested-system: "M1 muscarinic receptor (Homo sapiens, UniProt P11229)"
  Emax: "65 to 85%"
- compound: "CCCc1ccc2c(c1)C1(CCN(C3CCN(C(=O)OCC)CC3)CC1)CN2C(C)=O [compound 74]"
  tested-system: "M1 muscarinic receptor (Homo sapiens, UniProt P11229)"
  Emax: "65 to 85%"
- compound: "C#CCOC(=O)N1CCC(CN2CCC3(CC2)C[C@H](NC(C)=O)c2ccccc23)CC1 [compound 364]"
  tested-system: "M1 muscarinic receptor (Homo sapiens, UniProt P11229)"
  Emax: "> 85%"

* * *

# tested-system: M4 muscarinic receptor (Homo sapiens)
# Construct: expressed in transfected cells; host or cells: CHO cells (M4-CHO, under puromycin, zeocin and blasticidin selection)
# Sequence (P08173 whole entry): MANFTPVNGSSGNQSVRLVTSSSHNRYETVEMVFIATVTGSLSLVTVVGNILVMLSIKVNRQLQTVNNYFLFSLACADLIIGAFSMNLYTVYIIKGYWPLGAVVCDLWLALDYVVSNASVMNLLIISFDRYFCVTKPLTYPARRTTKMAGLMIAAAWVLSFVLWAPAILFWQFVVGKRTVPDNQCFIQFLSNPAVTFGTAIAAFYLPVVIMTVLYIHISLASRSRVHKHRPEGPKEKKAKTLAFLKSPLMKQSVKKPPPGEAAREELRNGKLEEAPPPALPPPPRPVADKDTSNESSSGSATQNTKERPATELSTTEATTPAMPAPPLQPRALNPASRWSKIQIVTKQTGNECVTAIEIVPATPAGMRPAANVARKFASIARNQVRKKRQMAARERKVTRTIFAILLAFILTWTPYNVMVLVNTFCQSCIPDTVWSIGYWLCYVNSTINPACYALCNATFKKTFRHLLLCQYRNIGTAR
# procedure-summary: Functional mobilization of intracellular calcium (FLIPR, Fluo-3), M4-CHO cells
# Assay type: cell-based
# applied-conditions: compound nos. 1-454; 100% efficacy is the maximum response obtained with the Carbachol control; read-out: M4 Efficacy
Property: Emax; scope: individual compounds
observable: Emax

- compound: "CN(C)C(=O)N1CC2(CCN(C3CCN(C(=O)O[C@H]4CCOC4)CC3)CC2)c2cc(F)ccc21"
  observable: "Emax"
  result: "< 55%"
- compound: "CCOC(=O)N1CCC(N2CCC3(CC2)CN(C(=O)c2ccccc2F)c2ccc(F)cc23)CC1"
  observable: "Emax"
  result: "< 55%"
- compound: "O=C1Nc2ccccc2C12CCN(CC1CC3C=CC1C3)CC2 (centres unmarked)"
  observable: "Emax"
  result: "> 70%"
- compound: "O=C(O[C@@H]1CCOC1)N1CC2(CCN(C3CC4CCC(C3)N4C(=O)O[C@@H]3CCOC3)CC2)c2cc(F)ccc21 (some centres unmarked)"
  observable: "Emax"
  result: "< 55%"
- compound: "O=C(OC1CCC1)N1CC2(CCN(C3CC4CCC(C3)N4C(=O)O[C@H]3CCOC3)CC2)c2cc(F)ccc21 (some centres unmarked)"
  observable: "Emax"
  result: "< 55%"
- compound: "Clc1ccc2c(c1)C1(CCO2)CCN(CC2CCOCC2)CC1"
  observable: "Emax"
  result: "< 55%"
- compound: "CCOC(=O)N1C2CCC1CC(N1CCC3(CC1)CN(C(=O)C1CC1)c1ccc(F)cc13)C2 (centres unmarked)"
  observable: "Emax"
  result: "< 55%"
- compound: "CN(C)C(=O)N1CC2(CCN(C3CCN(c4cncnc4)CC3)CC2)c2cc(F)ccc21"
  observable: "Emax"
  result: "55 to 70%"

* * *

# tested-system: M1 muscarinic receptor (Homo sapiens, UniProt P11229)
# Construct: expressed in transfected cells; host or cells: CHO cells (M1-CHO, under zeocin and G418 selection)
# procedure-summary: Functional mobilization of intracellular calcium (FLIPR, Fluo-3), M1-CHO cells
# Assay type: cell-based
# applied-conditions: compound nos. 1-454; 100% efficacy is the maximum response obtained with the Carbachol control; read-out: M1 Efficacy

- compound: "CCOC(=O)N[C@@H]1CC2(CCN(C[C@H]3C[C@H]4CC[C@H]3C4)CC2)c2ccccc21 [compound 275]"
  Emax: "65 to 85%"
- compound: "CCOC(=O)N1C2CCC1CC(N1CCC3(CC1)CC(NC(C)=O)c1ccccc13)C2 (centres unmarked) [compound 318]"
  Emax: "65 to 85%"
- compound: "Clc1ccc2c(c1)C1(CCN(CC3CCOCC3)CC1)CO2 [compound 415]"
  Emax: "< 65%"
- compound: "COc1ccc(F)cc1N1CCC(N2CCC3(CC2)CN(C(=O)N(C)C)c2ccc(F)cc23)CC1 [compound 443]"
  Emax: "65 to 85%"
- compound: "Fc1ccc2c(c1)C1(CCN(CC3CCCCC3)CC1)CN2 [compound 239]"
  Emax: "65 to 85%"

* * *

# tested-system: M1 muscarinic receptor (Homo sapiens)
# Construct: expressed in transfected cells; host or cells: CHO cells (M1-CHO, under zeocin and G418 selection)
# procedure-summary: Functional mobilization of intracellular calcium (FLIPR, Fluo-3), M1-CHO cells
# Format: cell-based
# applied-conditions: compound nos. 1-454; 100% efficacy is the maximum response obtained with the Carbachol control; read-out: M1 Efficacy

- compound: "CC(=O)CN1CC2(CCN(C[C@@H]3C[C@H]4C=C[C@H]3C4)CC2)c2cc(F)ccc21"
  tested-system: "M1 muscarinic receptor (Homo sapiens)"
  Emax: "65 to 85%"
- compound: "O=C(O[C@H]1CCOC1)N1C2CCC1CC(N1CCC3(CC1)C(=O)Nc1ccccc13)C2 (stereo partly shown)"
  tested-system: "M1 muscarinic receptor (Homo sapiens)"
  Emax: "< 65%"
- compound: "Clc1ccc2c(c1)C1(CCO2)CCN(C2CCCCC2)CC1"
  tested-system: "M1 muscarinic receptor (Homo sapiens)"
  Emax: "65 to 85%"
- compound: "Fc1ccc2c(c1)C1(CCN(C3CCCCC3)CC1)CO2"
  tested-system: "M1 muscarinic receptor (Homo sapiens)"
  Emax: "65 to 85%"
